# Study system: Delta-type opioid receptor (Homo sapiens, UniProt P41143)
# Sequence (P41143 whole entry): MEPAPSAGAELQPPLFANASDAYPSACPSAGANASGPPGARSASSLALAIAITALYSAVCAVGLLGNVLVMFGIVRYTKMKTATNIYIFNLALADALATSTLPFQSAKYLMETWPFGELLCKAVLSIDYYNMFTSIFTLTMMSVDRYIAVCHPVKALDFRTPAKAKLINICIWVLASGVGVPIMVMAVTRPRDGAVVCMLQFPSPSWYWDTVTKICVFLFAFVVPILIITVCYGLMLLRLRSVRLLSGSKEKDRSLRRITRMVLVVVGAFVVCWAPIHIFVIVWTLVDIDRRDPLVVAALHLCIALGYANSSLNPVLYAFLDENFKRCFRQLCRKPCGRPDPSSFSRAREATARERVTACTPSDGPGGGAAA
# Experiment description: Displacement of [3H]DPDPE from human delta opioid receptor expressed in HN9.10 cells
Positions of bridges follow the written chain, without caps; N, C: chain ends. Non-standard residues stand in square brackets, D forms with d. Residues, ends and D or L forms follow the SMILES beside them. *: point of attachment. NH(3,5-(CF3)2-benzyl) = FC(F)(F)c1cc(CN*)cc(C(F)(F)F)c1; Nle = CCCC[C@H](N)C(=O)O
Measured parameter: pIC50
// pIC50 here means minus log10 of the molar concentration (mol/L)

Recorded results for 3 molecules are shown here.
CCCC[C@@H]1NC(=O)[C@H](Cc2ccccc2)NC(=O)CNC(=O)[C@H](NC(=O)[C@@H](N)Cc2ccc(O)cc2)CSSC[C@H](C(=O)N[C@@H](Cc2c[nH]c3ccccc23)C(=O)NCc2cc(C(F)(F)F)cc(C(F)(F)F)c2)NC(=O)[C@@H]2CCCN2C1=O (H-Y[dC]GF[Nle]P[dC]W-{NH(3,5-(CF3)2-benzyl)}; disulfide 2-7) :: 6.93
CC(C)C[C@H](NC(=O)[C@@H]1CCCN1C(=O)[C@@H]1CSSC[C@@H](NC(=O)[C@@H](N)Cc2ccc(O)cc2)C(=O)NCC(=O)N[C@@H](Cc2ccccc2)C(=O)N1)C(=O)N[C@@H](Cc1c[nH]c2ccccc12)C(=O)NCc1cc(C(F)(F)F)cc(C(F)(F)F)c1 :: 7.65
CCCC[C@@H]1NC(=O)[C@H](Cc2ccccc2)NC(=O)CNC(=O)[C@H](NC(=O)[C@@H](N)Cc2ccc(O)cc2)CSSC[C@@H](C(=O)N[C@@H](Cc2c[nH]c3ccccc23)C(=O)NCc2cc(C(F)(F)F)cc(C(F)(F)F)c2)NC(=O)[C@@H]2CCCN2C1=O (H-Y[dC]GF[Nle]PCW-{NH(3,5-(CF3)2-benzyl)}; disulfide 2-7) :: 8.57

Q: So what pIC50 did CC(C)C[C@H](NC(=O)[C@@H]1CCCN1C(=O)[C@H]1CSSC[C@@H](NC(=O)[C@@H](N)Cc2ccc(O)cc2)C(=O)NCC(=O)N[C@@H](Cc2ccccc2)C(=O)N1)C(=O)N[C@@H](Cc1c[nH]c2ccccc12)C(=O)NCc1cc(C(F)(F)F)cc(C(F)(F)F)c1 get with Delta-type opioid receptor (Homo sapiens, UniProt P41143)?
A: 7.81

====

# Experiment description: Metabolic stability in rat plasma assessed as parent compound remaining at 37 degC after 24 hrs
# Type: ADME, cell-free
# Condition description: read-out: Stability
Positions of bridges follow the written chain, without caps; N, C: chain ends. Non-standard residues stand in square brackets, D forms with d. Residues, ends and D or L forms follow the SMILES beside them. *: point of attachment. NH(3,5-(CF3)2-benzyl) = FC(F)(F)c1cc(CN*)cc(C(F)(F)F)c1; Nle = CCCC[C@H](N)C(=O)O
Measured parameter: remaining at 24 h (%)
Just the number please, in %, no unit attached.

Q: Would you kindly share the measured remaining at 24 h for CCCC[C@@H]1NC(=O)[C@H](Cc2ccccc2)NC(=O)CNC(=O)[C@H](NC(=O)[C@@H](N)Cc2ccc(O)cc2)CSSC[C@H](C(=O)N[C@@H](Cc2c[nH]c3ccccc23)C(=O)NCc2cc(C(F)(F)F)cc(C(F)(F)F)c2)NC(=O)[C@@H]2CCCN2C1=O (H-Y[dC]GF[Nle]P[dC]W-{NH(3,5-(CF3)2-benzyl)}; disulfide 2-7) ?
A: 70
